System: NCI-H211 tumor spheroids, viability percent test/control
Test: Anticancer human tumor NCI-H211 cell line growth inhibition;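 further: spheroids exposed to agents for seven days before readout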
Details: second compound 0.0949 µM; first compound 0.0949 µM; active compounds read low; spheroids with HUVEC and MSC
For each entry below, report its viability, T/C value.
State just the number; it will be interpreted in %.

Exercise: Short answer please: viability, T/C, NCI-H211 tumor spheroids, viability percent test/control, entry CNCc1ccc(-c2cc(-c3nc(-c4ccc(S(=O)(=O)C(C)C)cc4)cnc3N)on2)cc1 + CC[C@@]1(O)C(=O)OCc2c1cc1n(c2=O)Cc2cc3c(CN(C)C)c(O)ccc3nc2-1
Solution: 1.06

Exercise: Short answer please: viability, T/C, NCI-H211 tumor spheroids, viability percent test/control, entry Cn1ncnc1[C@H]1c2n[nH]c(=O)c3cc(F)cc(c23)N[C@@H]1c1ccc(F)cc1 + CC[C@@]1(O)C(=O)OCc2c1cc1n(c2=O)Cc2cc3c(CN(C)C)c(O)ccc3nc2-1
Solution: 1.17

Exercise: Short answer please: viability, T/C, NCI-H211 tumor spheroids, viability percent test/control, entry O=C(c1cc(Cc2n[nH]c(=O)c3ccccc23)ccc1F)N1CCN(C(=O)C2CC2)CC1 + CC[C@@]1(O)C(=O)OCc2c1cc1n(c2=O)Cc2cc3c(CN(C)C)c(O)ccc3nc2-1
Solution: 1.07

Exercise: Short answer please: viability, T/C, NCI-H211 tumor spheroids, viability percent test/control, entry Cc1sc2c(c1C)C(c1ccc(Cl)cc1)=NC(CC(=O)Nc1ccc(O)cc1)c1nnc(C)n1-2 (centres undefined) + CC[C@@]1(O)C(=O)OCc2c1cc1n(c2=O)Cc2cc3c(CN(C)C)c(O)ccc3nc2-1
Solution: 0.73

====

System: NCI-H211 tumor spheroids, viability percent test/control
Experiment: Anticancer human tumor NCI-H211 cell line growth inhibition;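 further: spheroids exposed to agents for seven days before readout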
Conditions: second compound 0.0949 µM; first compound 0.1 µM; active compounds read low; spheroids with HUVEC and MSC
assay endpoint: viability, T/C (%)
State just the number; it will be interpreted in %.

Exercise: Recorded viability, T/C for [2H]c1nc(C)nc([2H])c1-c1cc(NC[C@@H](C)c2cccc3c(C(=O)NC)ccnc23)ncn1 + CC[C@@]1(O)C(=O)OCc2c1cc1n(c2=O)Cc2cc3c(CN(C)C)c(O)ccc3nc2-1 , please?
Solution: 0.76

Exercise: Recorded viability, T/C for COc1ccc([C@@H](O)c2cc(-c3ncnc4cc(N5CCOCC5)ccc34)c(F)cc2Cl)nn1 + CC[C@@]1(O)C(=O)OCc2c1cc1n(c2=O)Cc2cc3c(CN(C)C)c(O)ccc3nc2-1 , please?
Solution: 0.83

Exercise: Recorded viability, T/C for CC(C)n1c(=O)n(C)c2cnc3cc(F)c(-c4ccc(OCCCN5CCCCC5)nc4)cc3c21 + CC[C@@]1(O)C(=O)OCc2c1cc1n(c2=O)Cc2cc3c(CN(C)C)c(O)ccc3nc2-1 , please?
Solution: 1.01

Exercise: Recorded viability, T/C for Cc1cc(C)c(CNC(=O)c2cc(-c3ccc(CN4CCOCC4)cc3)cc3c2cnn3C2CCCC2)c(=O)[nH]1 + CC[C@@]1(O)C(=O)OCc2c1cc1n(c2=O)Cc2cc3c(CN(C)C)c(O)ccc3nc2-1 , please?
Solution: 1.06

Exercise: Recorded viability, T/C for CC1COCCN1c1cc(-c2ccnn2C)c2ccnc(-c3ccn[nH]3)c2n1 (stereo unspecified) + CC[C@@]1(O)C(=O)OCc2c1cc1n(c2=O)Cc2cc3c(CN(C)C)c(O)ccc3nc2-1 , please?
Solution: 0.9

Exercise: Recorded viability, T/C for COc1cc(C)[nH]c(=O)c1CN1CCc2c(Cl)cc(C(OC)C3COC3)c(Cl)c2C1=O (stereo unspecified) + CC[C@@]1(O)C(=O)OCc2c1cc1n(c2=O)Cc2cc3c(CN(C)C)c(O)ccc3nc2-1 , please?
Solution: 1.42

The measured values listed here are drawn from PubChem BioAssay AID1845209.
